Data provenance: ChEMBL document CHEMBL3745605

assay: Cytotoxicity against human TZM-bl cells after 2 days by colorimetric XTT assay; assay type: cell-based
Bridge positions count the residues as written; N and C are the ends. Square brackets hold non-standard residues; d marks the D form. Peptide text beside a SMILES is read from it.
Items are presented alongside their recorded CC50 at 48 h.
Property: CC50 at 48 h (µM)

INSERT INTO measurements (molecule, reported_result) VALUES
  ('CC(C)C[C@@H]1NC(=O)[C@@H](CC(C)C)NC(=O)[C@H](C(C)C)NC(=O)[C@H]2CSSC[C@@H](NC1=O)C(=O)N2 (cyclo(L[dC][dC]V[dL]); disulfide 2-3)', 16.4),
  ('COc1cc(O)c2c(O)c3c(=O)cc(C)oc3cc2c1', 1020),
  ('NC(=O)c1c[nH]c(Cc2ccccc2)cc1=O', 583),
  ('COc1cc([C@H](Cc2ccccc2)n2cc(C(=O)NC(=O)C[C@H](C)C(=O)O)c(=O)cc2Cc2ccccc2)oc(=O)c1', 35);
